# Protocol notes: NCI Yeast Anticancer Drug Screen. Data for the mlh1 rad18 strain (AID 175)
# Measurement conditions: S. cerevisiae mlh1 rad18 strain growth inhibition; at 5.0 µM (retest, dose inferred, filed as 0.5); hits give high values
This is part of a sample that, as a whole, favours compounds with a hit. Of some 79,000 tested, about 15% had one in any assay.
Parameter measured: growth inhibition (%)
Your answer is read as %, so omit the unit and give the number.

Prompt line: Entry under review: CCOC(=O)C(Cc1ccc(O)cc1)NCc1ccc(N(CCCl)CCCl)cc1 (stereo not drawn) . Reported growth inhibition?
Response line: 80

Prompt line: Look up growth inhibition: O=C(Cl)c1ccccn1
Response line: 1

Prompt line: Fill in the blank: the reported growth inhibition of COc1cc(N(CCCl)CCCl)ccc1C=Nc1cccc(Cl)c1 is ____.
Response line: 17

Prompt line: What does the record list as growth inhibition for CN1C(=O)CC[C@@]2(C)C1=CC[C@H]1[C@@H]3CC[C@H](O)[C@@]3(C)CC[C@@H]12 ?
Response line: 6

Prompt line: Any idea what its growth inhibition is? The compound is O=C(COc1ccc(Cl)c(Cl)c1)N(Cc1ccccc1)Cc1ccc[n+](Cc2ccc(Cl)cc2S(=O)(=O)F)c1
Response line: 6

Prompt line: Reported growth inhibition, compound Oc1ccc(Br)cc1C1N(Cc2ccc(N(CCCl)CCCl)cc2Cl)CCCN1Cc1ccc(N(CCCl)CCCl)cc1Cl : ____
Response line: 98

Prompt line: Given CCCCCCNC(=O)CI , state its recorded growth inhibition.
Response line: -3

Prompt line: # growth inhibition lookup, item COc1cc(C=Nc2cc(Br)c(OC)c(Br)c2)ccc1N(CCCl)CCCl
Response line: 54

###

# Protocol notes: NCI Yeast Anticancer Drug Screen. Data for the cln2 rad14 strain (AID 165);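 further: 0% = growth equal to vehicle treated cultures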
# Measurement conditions: S. cerevisiae cln2 rad14 strain, at 5.0 µM (retest, dose inferred, filed as 0.5), hits give high values
# Method: Growth inhibition of yeast strains with defined genetic alterations is measured as a screen for potential anti-cancer activity. Selected strains with alterations in DNA damage repair or cell cycle control were exposed to compounds and growth inhibition was measured relative to vehicle treated controls. The strain used in this assay is cln2 rad14
About 79,000 compounds went through this panel and 15% of them were active in at least one assay; those are over-represented in the sample as a whole.
Parameter measured: growth inhibition (%)
Give the value, in units of %, as a plain number.

Prompt line: Could you tell me which growth inhibition is on file for ClCCN(CCCl)c1ccc(C2N(Cc3ccc(N(CCCl)CCCl)cc3Cl)CCCN2Cc2ccc(N(CCCl)CCCl)cc2Cl)cc1 ?
Response line: -7

Prompt line: Dear colleague, I am looking for the recorded growth inhibition of the following molecule: CC1(C)OC2OC3C(CN(CCCl)Cc4ccccc4)OC(c4ccccc4)OC3C2O1 (configuration not stated)
Response line: -2

Prompt line: Fill in: growth inhibition of Cc1cccc2cc3ccccc3cc12 is ___
Response line: 58

Prompt line: Any idea what its growth inhibition is? The molecule is CCCCCCCCCCCCCCCCCC[N+](C)(C)C
Response line: 99

Prompt line: Tell me the measured growth inhibition of CCOP(=O)(Oc1ccc([N+](=O)[O-])cc1)c1ccccc1C(C)C (configuration not stated) , please.
Response line: 40

Prompt line: Entry Oc1c(Cl)c(Cl)c(Cl)c(Cl)c1Cl.[Cu+2] has what growth inhibition?
Response line: 8

Prompt line: Would you kindly share the measured growth inhibition for NCCBr ?
Response line: 3

Prompt line: Requested field: growth inhibition. Item: CN(C)C(=[Se])[Se]C(=[Se])N(C)C
Response line: 84

Prompt line: Which measured growth inhibition value corresponds to [I][Hg][CH2]C1COCC([CH2][Hg][I])O1 (configuration not stated) ?
Response line: -1

Prompt line: // growth inhibition lookup, key: COc1cc(CC(=O)N2CC2)cc(OC)c1OC
Response line: -7

Prompt line: Record request: growth inhibition value, item CCN(CCCl)c1cc(CN(C)C)cc(NC(=O)c2ccc(C(=O)Nc3cc(CN(C)C)cc(N(CC)CCCl)c3)cc2)c1
Response line: 6

Prompt line: Endpoint output: growth inhibition of CCC1(O)C(=O)OCc2c1cc1n(c2=O)Cc2cc3ccc(C#N)cc3nc2-1 (configuration not stated) . Value?
Response line: 10

Prompt line: # get_value(readout='growth inhibition', item= COc1cccc2c1C(=O)c1c(O)c3c(c(O)c1C2=O)C[C@@](O)(/C(C)=N\O)C[C@@H]3OC1CC(N)C(O)C(C)O1 (some centres not stated) )
Response line: 3

Prompt line: Dear colleague, I am looking for the recorded growth inhibition of the following molecule: O=C1C=CC(=O)N1c1cccc2ccccc12 (tested in a mixture with another compound)
Response line: -1

Prompt line: Recorded growth inhibition of ClCCN(CCCl)CCN1c2ccccc2Sc2ccc(Cl)cc21 , please.
Response line: -1

Prompt line: Returns the measured growth inhibition for the input molecule. Input: N#CC(C#N)=Cc1cccc([N+](=O)[O-])c1
Response line: 1

Prompt line: Looking for the measured growth inhibition of COc1ccc(Br)cc1/C=C/[N+](=O)[O-] , can you help?
Response line: 83

Prompt line: Param item = O=C(c1ccccc1)C1CCCN(CCc2ccccc2)C1 (configuration not stated) ; retrieve measured growth inhibition.
Response line: 48

Prompt line: Tell me the measured growth inhibition of CN(C)CCN(C)P12(Oc3ccccc3O1)Oc1c(Cl)c(Cl)c(Cl)c(Cl)c1O2 , please.
Response line: -19

Prompt line: What does the record list as growth inhibition for O=C1OC2C(O1)C1(Cl)C(Cl)=C(Cl)C2(Cl)C1(Cl)Cl (configuration not stated) ?
Response line: 1

Prompt line: Which growth inhibition value belongs to Cc1ccc(P(c2ccc(C)cc2)c2ccc(C)cc2)cc1 ?
Response line: 69

Prompt line: Give the measured growth inhibition of CC(=O)Nc1ccccc1[As](O[As](c1ccccc1)c1ccccc1NC(C)=O)c1ccccc1 (configuration not stated) .
Response line: 37
